tested target: HLA-DR DRB1*1501 (human)
test protocol: competition assay, purified HLA, inhibition of 125I-labelled reference peptide
I'd appreciate it if you could supply IC50 values for the items below.
Numbers only, in nM.

VMRMGDLHSLQNRNG (modifications not checked) [Flu.NS2.125] : 372

What measured IC50 goes with DILMRMSKMQLGSSS (modifications not checked) [Flu.NS2.87] ?
748
